TEST SUMMARY: cytotoxicity in OVCAR8 ovarian cancer cells, dose response, PAX8 project, cell-based, plate reader, dry powder samples (AID 743197)
DETAILS: series mostly up to 35 µM
Measured potencies and affinities stand elsewhere. Activity calls are given as the source filed them. No rule for the calls is given here.
MEASURED ENDPOINT: outcome

>  <COMPOUND>
O=C1CN(S(=O)(=O)Cc2ccccc2)C[C@H]2[C@H](c3ccc(C#Cc4ccc(F)cc4)cc3)[C@H](CO)N12

>  <MEAS VALUE>
inactive

$$$$
>  <COMPOUND>
O=C(C[C@@H]1C[C@H]2c3cc(NC(=O)C4CCOCC4)ccc3O[C@H]2[C@H](CO)O1)NCc1ccc(Oc2ccccc2)cc1

>  <MEAS VALUE>
inactive

$$$$
>  <COMPOUND>
C[C@@H]1CN([C@H](C)CO)C(=O)c2cc(NC(=O)Nc3ccc(C(F)(F)F)cc3)ccc2O[C@@H](C)CCCCO[C@@H]1CN(C)Cc1ccncc1

>  <MEAS VALUE>
inactive

$$$$
>  <COMPOUND>
COc1cccc(-c2ccc(C3[C@@H]4CN(Cc5cccc(F)c5)C[C@H]3N4)cc2)c1 (some centres undefined)

>  <MEAS VALUE>
inactive

$$$$

###

Test system: Human papillomavirus type 1a E7 protein (residues 1-88)
TEST SUMMARY: HPV1a E7 small-molecule binders, primary screen, biochemical, small-molecule microarray, residues 1-88, 635 nm (AID 1129)
DETAILS: small-molecule microarray binding, fluorescence 635 nm; higher = more signal
MEASURED ENDPOINT: composite z-score
API doc: respond with a numeric literal and nothing else, no unit.

>  <COMPOUND>
NC(=O)N1C(=O)C2C(C1=O)C1C=C(c3ccc(CO)cc3)C2C(C2CC2)N1Cc1cc2c(cc1Br)OCO2 (configuration not stated)

>  <composite z-score>
0.066

$$$$
>  <COMPOUND>
COc1ccc([Si](C)(C)[C@H]2[C@H](CC(=O)N(CCO)Cc3ccccc3)O[C@@]3(C(=O)N(Cc4ccc(N5CCC5=O)cc4)c4ccccc43)[C@@H]2C)cc1

>  <composite z-score>
-0.178

$$$$
>  <COMPOUND>
COc1ccc([Si](C)(C)[C@H]2[C@H](CC(=O)N(CCO)Cc3ccccc3)O[C@@]3(C(=O)N(Cc4ccc(N5CCOC5=O)cc4)c4ccccc43)[C@@H]2C)cc1

>  <composite z-score>
0.0593

$$$$
>  <COMPOUND>
C=C(/C(=C/C[C@H](OC(C)=O)c1cccc(OCCO)c1)c1cc(C(=O)OC)ccc1OC)C(C)C

>  <composite z-score>
-0.389

$$$$
>  <COMPOUND>
C=C(CCCC)/C(=C/C[C@H](OC(=O)c1ccncc1)c1ccc(CO)o1)c1cnc2ccccc2c1

>  <composite z-score>
1.18

$$$$
>  <COMPOUND>
C=C(COC)C(=O)CC[C@@H](OC(=O)c1ccccc1-c1ccccc1C(=O)O)c1cccc(OCCO)c1

>  <composite z-score>
-0.533

$$$$

Consider the additional compound presented here.
Req: For NCCCCCCNC(=O)[C@@H]1C[C@@H]2C(=O)N[C@@H](Cc3ccccc3)C(=O)N2[C@@H]1c1ccc(O)cc1 , what is its reported composite z-score?
Resp: 0.434

###

ASSAYED TARGET: Concanavalin-A (Canavalia ensiformis)
TEST SUMMARY: ConA small-molecule binders, primary screen, artefact control for SMM control protein annotation, biochemical, small-molecule microarray, Alexa647 label, 635 nm (AID 1127);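 also: z combines 667 nm emission intensity with signal-to-noise across three replicate slides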
DETAILS: ConA-A647 binding fluorescence, higher = more signal
MEASURED ENDPOINT: composite z-score
API doc: respond with a numeric literal and nothing else, no unit.

Req: For COCCOC(=O)N1C(=O)[C@@]2(c3cc(C#CC4(O)CCCCCC4)ccc31)[C@H](C(=O)NC[C@H](O)c1ccccc1)[C@H]1C(=O)O[C@H](c3ccccc3)[C@H](c3ccccc3)N1[C@@H]2c1ccccc1OCCO , what is its reported composite z-score?
Resp: 1.14

Req: Also, CO[C@H]1O[C@H](CO)[C@@H](OC(=O)Nc2ccccc2)[C@H](OC(=O)Nc2ccccc2-c2ccccc2)[C@H]1OC(=O)Nc1ccccc1-c1ccccc1 please.
Resp: 1.19

###

ASSAYED TARGET: E3 ubiquitin-protein ligase XIAP (Homo sapiens) (UniProt P98170)
Sequence (P98170 whole entry, looked up): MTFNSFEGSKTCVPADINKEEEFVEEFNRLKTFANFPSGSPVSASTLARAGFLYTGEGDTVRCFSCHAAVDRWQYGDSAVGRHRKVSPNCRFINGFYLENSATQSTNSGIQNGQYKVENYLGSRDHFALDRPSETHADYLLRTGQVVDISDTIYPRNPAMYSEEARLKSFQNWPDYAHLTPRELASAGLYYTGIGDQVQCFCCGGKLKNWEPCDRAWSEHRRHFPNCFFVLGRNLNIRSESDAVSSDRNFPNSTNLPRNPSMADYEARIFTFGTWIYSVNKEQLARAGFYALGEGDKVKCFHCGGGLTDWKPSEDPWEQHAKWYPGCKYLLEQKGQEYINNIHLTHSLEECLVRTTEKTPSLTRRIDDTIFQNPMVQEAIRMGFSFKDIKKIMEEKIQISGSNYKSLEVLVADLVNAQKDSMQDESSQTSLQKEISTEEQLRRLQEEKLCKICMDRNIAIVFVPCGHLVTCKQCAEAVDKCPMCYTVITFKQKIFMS
TEST SUMMARY: XIAP binders, primary screen, biophysical, small-molecule microarray, fluorescence 635 nm (AID 1181);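 also: score merges 667 nm emission and signal to noise over triplicate slides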
DETAILS: small-molecule microarray binding, higher = more signal
Returns one of T or F; T when composite z-score is >= -0.04.

Consider the worked cases shown below.
>  <COMPOUND>
C#CCN1C(C(=O)OCC)OC[C@H]1c1ccccc1 (stereo not given in full)

>  <CLASSIFICATION>
F

$$$$
>  <COMPOUND>
COC(=O)C(CC#Cc1ccc2c(c1)[C@]1(C(=O)N2)[C@H](c2ccccc2OCCO)N2[C@H](c3ccccc3)[C@H](c3ccccc3)OC(=O)[C@H]2[C@@H]1C(=O)N1CCCCCCC1)C(=O)OC

>  <CLASSIFICATION>
T

$$$$
>  <COMPOUND>
COc1ccc(C(=O)Nc2cccc(CN3C(=O)[C@@]4(O[C@@H](CCO)[C@H]([Si](C)(C)c5ccc(OC)cc5)[C@H]4C)c4ccccc43)c2)cc1

>  <CLASSIFICATION>
T

$$$$
>  <COMPOUND>
CCCC[C@@H](O)C1=C(C)C[C@H]2C(=O)N(C)C(=O)[C@H]2[C@H]1CO

>  <CLASSIFICATION>
T

$$$$
>  <COMPOUND>
CC(C)C[C@@H]1NC(=O)[C@H]2C[C@@H](C(=O)NCCCC[N+](C)(C)C)[C@@H](c3cccc(OCCO)c3)N2C1=O

>  <CLASSIFICATION>
F

$$$$

Req: Textbook exercise: given the entry CCCCCCC#C[Si](O[C@H](c1ccccc1)c1cn(Cc2ccccc2)nn1)(C(C)C)C(C)C , state whether its composite z-score is greater than or equal to -0.04.
Resp: T

Req: Also, O=C(O)[C@H]1C[C@H]2C(=O)NCC(=O)N2[C@H]1c1cccc(OCCO)c1 please.
Resp: T

Req: Also, COC(=O)[C@@]1(CCC(=O)OC(C)(C)C)COC(c2ccc(OCCCO)cc2)=N1 please.
Resp: F

Req: Also, Cc1ccc(S[C@]2(C(=O)NC3CC3)CC(=O)N(Cc3ccccc3C(F)(F)F)[C@@H]2c2ccc(CO)cc2I)cc1 please.
Resp: F

Req: Also, C=C(CCCC)/C(=C/C[C@@H](OC(=O)c1ccncc1)c1ccc(OCCO)cc1)c1cnc2ccccc2c1 please.
Resp: T

Req: Also, C=CCNC(=O)[C@@H]1[C@H]2C(=O)O[C@H](c3ccccc3)[C@H](c3ccccc3)N2[C@H](c2ccc(O)cc2)[C@@]12C(=O)Nc1ccc(C#Cc3ccc(OC)cc3)cc12 please.
Resp: F

Req: Also, C=CCC(OC(C)=O)[C@@H]1[C@@H](N(Cc2cc3ccccc3o2)C(=O)c2ccc(-c3ccccc3)cc2)c2cc(OCCCO)ccc2N1C(=O)c1ccc(-c2ccccc2)cc1 (stereo not given in full) please.
Resp: F

Req: Also, CC(C)C(CO)N1C(=O)[C@@H]2[C@H]3C(=O)OCC=C[C@H]3OC23C=CCN(Cc2ccccc2)C(=O)[C@@H]13 (stereo not given in full) please.
Resp: T

Req: Also, O=C1c2ccccc2[C@@]2(Cc3ccccc3N(CC(F)(F)F)C2=O)[C@H](c2ccc(CO)cc2)N1Cc1ccccc1C(F)(F)F please.
Resp: F

Req: Also, CC(C)N1C(=O)c2ccccc2[C@@H](C(=O)NCc2ccccc2)[C@@H]1c1ccc(CO)cc1 please.
Resp: T

###

ASSAYED TARGET: Concanavalin-A (Canavalia ensiformis)
TEST SUMMARY: ConA small-molecule binders, primary screen, artefact control for SMM control protein annotation, biochemical, small-molecule microarray, Alexa647 label, 635 nm (AID 1127);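 also: z combines 667 nm emission intensity with signal-to-noise across three replicate slides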
DETAILS: ConA-A647 binding fluorescence, higher = more signal
MEASURED ENDPOINT: composite z-score
API doc: respond with a numeric literal and nothing else, no unit.

Answered cases to consult:
>  <COMPOUND>
CCCC[C@@H](O)C1=C(C)C[C@H]2C(=O)N(C)C(=O)[C@H]2[C@H]1CO

>  <MEASURED ENDPOINT>
composite z-score

>  <MEAS VALUE>
0.0354

$$$$
>  <COMPOUND>
Cc1ccc(S[C@]2(C(=O)NCC(C)C)CC(=O)N(C(C)C)[C@@H]2c2ccc(CO)cc2)cc1

>  <MEASURED ENDPOINT>
composite z-score

>  <MEAS VALUE>
-0.522

$$$$
>  <COMPOUND>
CCCNC(=O)[C@@H]1c2ccccc2C(=O)N(Cc2cc(C(F)(F)F)cc(C(F)(F)F)c2)[C@H]1c1ccc(CO)cc1

>  <MEASURED ENDPOINT>
composite z-score

>  <MEAS VALUE>
0.234

$$$$
>  <COMPOUND>
C=CC[C@@H](OC(=O)Nc1ccc(SC)cc1)c1ccc(OCCO)cc1

>  <MEASURED ENDPOINT>
composite z-score

>  <MEAS VALUE>
-0.264

$$$$
>  <COMPOUND>
O=C1O[C@H](c2ccccc2)[C@H](c2ccccc2)N2[C@H]1[C@@H](C(=O)Nc1nc3ccccc3s1)[C@]1(C(=O)Nc3ccc(C#CCCO)cc31)[C@H]2c1ccccc1OCCO

>  <MEASURED ENDPOINT>
composite z-score

>  <MEAS VALUE>
1.18

$$$$
>  <COMPOUND>
O=C(NCC(F)(F)F)[C@@H]1c2ccccc2C(=O)N(C2Cc3ccccc3C2)[C@H]1c1ccc(CO)cc1

>  <MEASURED ENDPOINT>
composite z-score

>  <MEAS VALUE>
-1

$$$$

Req: For C#CCN1C(C(=O)OCC)OC[C@H]1c1ccccc1 (some centres undefined) , what is its reported composite z-score?
Resp: 0.303

Req: Also, C=C(C(=O)CC[C@H](OC(C)=O)c1ccc(CO)o1)C(C)C please.
Resp: -0.0824

Req: Also, CO[C@H]1O[C@H](CO)[C@@H](OC(=O)Nc2ccccc2)[C@H](OC(=O)Nc2ccccc2-c2ccccc2)[C@@H]1OC(=O)Nc1ccccc1-c1ccccc1 please.
Resp: 1.19
